The reported numbers originate from ChEMBL document CHEMBL1201862.

# TARGET_OF_ASSAY: Ras and Rab interactor 1/Tyrosine-protein kinase ABL1 (Homo sapiens, UniProt P00519+Q13671);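 note: biochemical TR-FRET dose-response test measuring inhibition of binding between Rin1 and Abl proteins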
# Sequence (P00519 whole entry): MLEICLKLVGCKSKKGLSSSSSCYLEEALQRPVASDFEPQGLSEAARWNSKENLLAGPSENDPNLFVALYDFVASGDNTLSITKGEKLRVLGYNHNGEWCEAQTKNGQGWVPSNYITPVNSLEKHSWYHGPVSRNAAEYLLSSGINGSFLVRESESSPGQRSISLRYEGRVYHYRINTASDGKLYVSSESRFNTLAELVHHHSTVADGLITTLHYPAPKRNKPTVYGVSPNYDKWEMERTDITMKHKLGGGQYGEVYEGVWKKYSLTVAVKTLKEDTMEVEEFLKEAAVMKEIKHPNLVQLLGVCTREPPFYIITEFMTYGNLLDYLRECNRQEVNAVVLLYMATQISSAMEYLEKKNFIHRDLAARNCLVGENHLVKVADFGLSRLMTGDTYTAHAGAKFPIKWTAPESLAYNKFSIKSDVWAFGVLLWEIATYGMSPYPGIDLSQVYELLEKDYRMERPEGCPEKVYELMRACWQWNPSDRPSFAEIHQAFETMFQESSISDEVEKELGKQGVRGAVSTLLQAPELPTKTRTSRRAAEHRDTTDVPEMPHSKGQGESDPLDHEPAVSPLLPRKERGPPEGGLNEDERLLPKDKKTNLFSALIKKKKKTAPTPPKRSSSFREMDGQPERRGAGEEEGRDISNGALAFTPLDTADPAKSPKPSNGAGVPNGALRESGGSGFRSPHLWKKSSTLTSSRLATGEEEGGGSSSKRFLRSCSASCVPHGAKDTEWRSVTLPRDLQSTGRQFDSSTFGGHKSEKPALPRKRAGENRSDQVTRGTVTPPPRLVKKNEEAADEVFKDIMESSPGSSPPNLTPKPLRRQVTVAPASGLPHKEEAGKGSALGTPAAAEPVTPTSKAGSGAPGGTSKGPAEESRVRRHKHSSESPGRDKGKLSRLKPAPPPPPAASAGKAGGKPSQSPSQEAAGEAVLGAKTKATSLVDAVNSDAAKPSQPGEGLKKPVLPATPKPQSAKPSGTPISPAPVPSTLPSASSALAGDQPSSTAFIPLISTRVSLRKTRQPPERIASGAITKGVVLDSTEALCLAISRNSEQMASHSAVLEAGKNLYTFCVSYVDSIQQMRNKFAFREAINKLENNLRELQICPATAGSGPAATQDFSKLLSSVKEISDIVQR
# Sequence (Q13671 whole entry): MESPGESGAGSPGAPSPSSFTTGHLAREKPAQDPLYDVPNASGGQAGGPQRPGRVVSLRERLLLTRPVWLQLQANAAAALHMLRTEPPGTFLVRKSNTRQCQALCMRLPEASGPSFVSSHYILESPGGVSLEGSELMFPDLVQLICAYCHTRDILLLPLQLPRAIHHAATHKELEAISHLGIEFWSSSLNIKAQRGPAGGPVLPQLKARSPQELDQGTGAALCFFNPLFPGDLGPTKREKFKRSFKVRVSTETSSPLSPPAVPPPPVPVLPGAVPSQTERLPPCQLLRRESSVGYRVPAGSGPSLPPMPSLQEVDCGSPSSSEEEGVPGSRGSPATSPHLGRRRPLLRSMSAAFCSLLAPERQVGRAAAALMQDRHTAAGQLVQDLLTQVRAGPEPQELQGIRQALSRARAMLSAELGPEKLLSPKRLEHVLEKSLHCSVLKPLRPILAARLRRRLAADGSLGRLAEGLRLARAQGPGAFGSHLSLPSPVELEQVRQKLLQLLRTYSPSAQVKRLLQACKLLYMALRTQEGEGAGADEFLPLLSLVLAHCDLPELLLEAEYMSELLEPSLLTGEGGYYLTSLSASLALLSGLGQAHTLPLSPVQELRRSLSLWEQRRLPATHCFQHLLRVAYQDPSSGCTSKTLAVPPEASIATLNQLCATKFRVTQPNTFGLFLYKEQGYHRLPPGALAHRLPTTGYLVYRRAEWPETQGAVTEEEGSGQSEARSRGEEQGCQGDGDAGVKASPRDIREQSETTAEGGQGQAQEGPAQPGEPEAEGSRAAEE
# Assay type: functional
Calls of active or inactive are those of the source.
Outcomes: active, inactive

MOLECULE | ASSIGNED_CATEGORY
O=C(Nc1ccn(CCCN2CCN(Cc3ccc(F)cc3)CC2)c(=O)n1)OCc1ccccc1 | inactive
CC[C@]12c3[nH]c4ccc(OC)cc4c3CCN1C(=O)C(CC(=O)NCCCN(C)C)C[C@@H]2C(=O)N1CCN(C(=O)c2ccco2)CC1 (some centres undefined) | inactive
C[C@@H]1NC(=O)N[C@@H]1CCCCCC(=O)O | active
O=C1CNC(=O)/C1=C/NC12CC3CC(CC(C3)C1)C2 | inactive

###

molecules and their reported IC50
# TARGET_OF_ASSAY: Corticotropin-releasing factor receptor 2/Corticotropin-releasing factor-binding protein (Homo sapiens, UniProt P24387+Q13324)
# Sequence (Q13324 whole entry): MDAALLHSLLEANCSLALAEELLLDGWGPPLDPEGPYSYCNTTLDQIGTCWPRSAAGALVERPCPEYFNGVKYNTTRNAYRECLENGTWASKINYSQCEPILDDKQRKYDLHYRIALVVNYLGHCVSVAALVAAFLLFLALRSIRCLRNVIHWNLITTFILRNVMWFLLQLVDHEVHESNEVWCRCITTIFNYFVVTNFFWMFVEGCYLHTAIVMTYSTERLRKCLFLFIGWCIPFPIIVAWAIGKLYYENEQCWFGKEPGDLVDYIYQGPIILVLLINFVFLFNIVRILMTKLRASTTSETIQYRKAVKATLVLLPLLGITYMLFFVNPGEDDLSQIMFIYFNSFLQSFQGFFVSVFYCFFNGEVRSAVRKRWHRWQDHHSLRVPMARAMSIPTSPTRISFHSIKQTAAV
# Sequence (P24387 whole entry): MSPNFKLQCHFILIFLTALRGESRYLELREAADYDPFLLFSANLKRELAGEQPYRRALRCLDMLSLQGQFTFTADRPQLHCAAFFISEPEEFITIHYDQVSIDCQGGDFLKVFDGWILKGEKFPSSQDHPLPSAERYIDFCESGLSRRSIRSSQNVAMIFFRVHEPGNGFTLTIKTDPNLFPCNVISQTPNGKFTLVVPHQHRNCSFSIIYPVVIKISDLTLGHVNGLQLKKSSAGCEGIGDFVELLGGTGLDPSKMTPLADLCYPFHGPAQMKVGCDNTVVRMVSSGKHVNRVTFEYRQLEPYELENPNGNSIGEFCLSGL
# ASSAY_NAME: Dose Response confirmation of uHTS hits for small molecule antagonists of the CRF-binding protein and CRF-R2 receptor complex.
# Type: functional
# PROTOCOL_CONDITIONS: read-out: IC50_Mean
Activity calls are given as the source filed them.
ASSAY_ENDPOINT: IC50

STRUCTURE | ASSAY_ENDPOINT | RESULT
COc1ccc(CCN=C(N)S)cc1OC | IC50 | > 47.1 µM (inactive)
Cc1sc2nc(CN(Cc3cccs3)C(=O)NC3CCCCC3)[nH]c(=O)c2c1C | IC50 | 16.4 µM (active)
COc1ccc2c(c1)c(C(=O)O)c(C)n2-c1ccc(Cl)cc1 | IC50 | > 47.1 µM (inactive)
COC(=O)C1CCN(C(=O)COC(=O)c2cc([N+](=O)[O-])ccc2N2CCOCC2)CC1 | IC50 | > 47.1 µM (inactive)
COc1ccc(NS(=O)(=O)c2ccc(N3CCOCC3)c(NC(=O)C(C)C)c2)cc1 | IC50 | > 47.1 µM (inactive)

###

# TARGET_OF_ASSAY: Calpain-2 catalytic subunit (Sus scrofa)
# Sequence (P43367 whole entry): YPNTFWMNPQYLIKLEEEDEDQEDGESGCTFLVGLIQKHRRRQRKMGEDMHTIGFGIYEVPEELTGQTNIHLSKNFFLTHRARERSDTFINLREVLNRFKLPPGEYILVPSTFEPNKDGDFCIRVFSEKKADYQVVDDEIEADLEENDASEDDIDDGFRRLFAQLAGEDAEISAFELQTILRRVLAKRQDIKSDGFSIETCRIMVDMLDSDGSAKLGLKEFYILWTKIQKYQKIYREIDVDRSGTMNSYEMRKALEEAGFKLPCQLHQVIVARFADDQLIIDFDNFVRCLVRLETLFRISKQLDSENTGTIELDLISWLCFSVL
# ASSAY_NAME: m-calpain protease blockers, concentration series – biochemical, fluorogenic peptide substrate, dose response (AID 1420)
# Type: functional
Activity calls are given as the source filed them.
ASSAY_ENDPOINT: IC50

COMPOUND | RESULT
Cc1cc2ncn(-c3ncnc4sc5c(c34)CCC(C)C5)c2cc1C (configuration not stated) | 19.2 µM (not active)
CCOC(=O)c1cnc(-n2nc(C)cc2C)nc1Nc1ccc(OC)cc1 | < 0.4 µM (not active)
Cc1nnc(Oc2ccccc2F)c2ccccc12 | > 50 µM (not active)
Cc1cc(C(=O)N/N=C/c2ccc([N+](=O)[O-])s2)[nH]n1 | 6.84 µM (not active)
c1ccc(Oc2ccc(-c3ccnc4ncnn34)cc2)cc1 | 11.5 µM (active)
Cc1cccc(OCc2nc(C#N)c(NCc3ccc4c(c3)OCO4)o2)c1 | 6.8 µM (not active)
O=C(Nc1ccc2oc(=O)ccc2c1)c1ccc(-c2ccc(Cl)cc2)o1 | 18.2 µM (not active)
COc1cc(-c2ccc(Nc3ccccc3C(=O)O)c(OC)c2)ccc1Nc1ccccc1C(=O)O | 2.87 µM (not active)
CCCCCCCn1c2c(c(=N)c3c1CCC3)CCCC2 | 16.7 µM (not active)
O=C(Nc1ccc(Cl)cc1)NC1CCCCC1Cc1ccco1 (configuration not stated) | 2.69 µM (not active)
COc1ccccc1Nc1nc(Cl)c(C=O)s1 | > 50 µM (not active)
CN1/C(=C\C(=O)CSc2nnc(NCc3ccccc3)s2)C(C)(C)c2ccccc21 | 4.01 µM (not active)
